These entries and their values trace back to ChEMBL document CHEMBL3297713.

# experimentalDetails: Volume of distribution at steady state in Wistar rat at 5 mg/kg, iv
# Format: ADME, organism-based
# Set-up: dose 5 mg/kg, route intravenous
# experimentalSetup: in vivo, read-out: Vdss
parameter: Vd (L/kg)

structuresmilesstring=Cc1cc2[nH]ncc2cc1-c1ccccc1C(F)(F)F parameter=Vd readingunit=L/kg measured=2.39

* * *

# experimentalDetails: Half life in Wistar rat at 1 mg/kg, iv
# Type: ADME, organism-based
# Design: dose 1 mg/kg, route intravenous
# experimentalSetup: in vivo
parameter: half-life (h)

structuresmilesstring=COc1cc2[nH]ncc2cc1-c1ccccc1C(F)(F)F measured=6.6

* * *

# subjectOfTest: Transient receptor potential cation channel subfamily A member 1 (Homo sapiens)
# experimentalDetails: Antagonist activity at human TRPA1 expressed in CHO-TREX cells assessed as inhibition of cinnamaldehyde-induced calcium flux incubated 10 mins prior to cinnamaldehyde addition by FLIPR assay relative to control
# Assay type: cell-based
pIC50: −log10 of the molar value.
pIC50 reference
parameter: pIC50

structuresmilesstring=CNC(=O)c1cc2[nH]ncc2cc1-c1ccccc1C(F)(F)F qual=< measured=4.52
structuresmilesstring=Cc1cc(-c2ccccc2C(F)(F)F)cc2cn[nH]c12 qual== measured=5.17
structuresmilesstring=CC(C)c1ccccc1-c1ccc2[nH]ncc2c1 qual== measured=6.29
structuresmilesstring=Fc1cc2[nH]ncc2cc1-c1ccccc1C(F)(F)F qual== measured=7.32
structuresmilesstring=Clc1ccccc1-c1ccc2[nH]ncc2c1 qual== measured=5.91
structuresmilesstring=Fc1cccc(-c2ccc3[nH]ncc3c2)c1C(F)(F)F qual== measured=5.05
structuresmilesstring=Cc1ccccc1-c1ccc2[nH]ncc2c1 qual== measured=5.11
structuresmilesstring=Fc1c(-c2ccccc2C(F)(F)F)ccc2[nH]ncc12 qual== measured=6.53
structuresmilesstring=CCc1ccccc1-c1ccc2[nH]ncc2c1 qual== measured=6.23
structuresmilesstring=FC(F)c1ccccc1-c1ccc2[nH]ncc2c1 qual== measured=5.66
structuresmilesstring=FC(F)Oc1cc2[nH]ncc2cc1-c1ccccc1C(F)(F)F qual== measured=7.30

* * *

# subjectOfTest: Transient receptor potential cation channel subfamily A member 1 (Homo sapiens, UniProt O75762)
# Sequence (O75762 whole entry): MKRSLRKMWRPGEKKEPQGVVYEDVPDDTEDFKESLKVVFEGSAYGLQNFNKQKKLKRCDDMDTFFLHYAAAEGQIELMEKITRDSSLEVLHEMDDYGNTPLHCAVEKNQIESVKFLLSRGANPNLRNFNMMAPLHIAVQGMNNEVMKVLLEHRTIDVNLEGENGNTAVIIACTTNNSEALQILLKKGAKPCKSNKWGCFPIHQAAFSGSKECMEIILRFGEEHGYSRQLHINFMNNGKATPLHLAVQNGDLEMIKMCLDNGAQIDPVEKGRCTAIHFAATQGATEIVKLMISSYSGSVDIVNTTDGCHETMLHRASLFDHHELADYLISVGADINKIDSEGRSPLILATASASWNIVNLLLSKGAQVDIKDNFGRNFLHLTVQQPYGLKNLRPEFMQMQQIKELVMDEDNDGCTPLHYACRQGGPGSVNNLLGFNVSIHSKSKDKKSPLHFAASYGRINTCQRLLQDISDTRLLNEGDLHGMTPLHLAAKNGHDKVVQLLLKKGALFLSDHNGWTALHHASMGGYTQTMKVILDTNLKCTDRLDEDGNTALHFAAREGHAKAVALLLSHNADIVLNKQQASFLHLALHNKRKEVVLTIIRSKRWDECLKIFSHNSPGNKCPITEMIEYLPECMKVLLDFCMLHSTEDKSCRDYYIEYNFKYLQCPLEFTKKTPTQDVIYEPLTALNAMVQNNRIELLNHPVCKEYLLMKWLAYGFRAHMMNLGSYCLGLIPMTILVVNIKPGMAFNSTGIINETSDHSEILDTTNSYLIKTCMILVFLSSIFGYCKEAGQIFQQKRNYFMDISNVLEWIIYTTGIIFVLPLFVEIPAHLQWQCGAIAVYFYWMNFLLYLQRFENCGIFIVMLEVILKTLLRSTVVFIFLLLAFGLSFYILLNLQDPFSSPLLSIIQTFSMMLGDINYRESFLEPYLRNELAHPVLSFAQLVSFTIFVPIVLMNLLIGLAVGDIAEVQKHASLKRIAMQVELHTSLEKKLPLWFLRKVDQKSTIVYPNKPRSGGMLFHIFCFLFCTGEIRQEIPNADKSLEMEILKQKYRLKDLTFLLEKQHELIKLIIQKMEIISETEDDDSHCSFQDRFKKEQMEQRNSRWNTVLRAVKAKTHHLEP
# experimentalDetails: Antagonist activity at human TRPA1 expressed in CHO-TREX cells assessed as inhibition of cinnamaldehyde-induced calcium flux incubated 10 mins prior to cinnamaldehyde addition by FLIPR assay relative to control
# Assay type: cell-based
# Set-up: concentration or dose not given beside the values
parameter: inhibition (%)

structuresmilesstring=Fc1cccc(-c2ccc3[nH]ncc3c2)c1C(F)(F)F measured=97
structuresmilesstring=N#Cc1ccccc1-c1ccc2[nH]ncc2c1 measured=91
structuresmilesstring=CC(C)Oc1cc2[nH]ncc2cc1-c1ccccc1C(F)(F)F measured=97
structuresmilesstring=Fc1ccc(C(F)(F)F)c(-c2ccc3[nH]ncc3c2)c1 measured=98
structuresmilesstring=FC(F)(F)c1ccccc1-c1cc2cn[nH]c2cc1C1CC1 measured=99
structuresmilesstring=CCc1ccccc1-c1ccc2[nH]ncc2c1 measured=96
structuresmilesstring=FC(F)(F)Oc1cc2[nH]ncc2cc1-c1ccccc1C(F)(F)F measured=99
structuresmilesstring=CCOc1cc2[nH]ncc2cc1-c1ccccc1C(F)(F)F measured=97
structuresmilesstring=FC(F)(F)c1ccccc1-c1cc2cn[nH]c2cc1Cl measured=98
structuresmilesstring=Clc1ccccc1-c1ccc2[nH]ncc2c1 measured=91
structuresmilesstring=CC(C)c1cc2[nH]ncc2cc1-c1ccccc1C(F)(F)F measured=59
structuresmilesstring=COc1cc2[nH]ncc2cc1-c1ccccc1C(F)(F)F measured=98
structuresmilesstring=FC(F)c1cc2[nH]ncc2cc1-c1ccccc1C(F)(F)F measured=100
structuresmilesstring=FC(F)c1ccccc1-c1ccc2[nH]ncc2c1 measured=93
structuresmilesstring=FC(F)Oc1cc2[nH]ncc2cc1-c1ccccc1C(F)(F)F measured=98
structuresmilesstring=FC(F)(F)c1ccccc1-c1ccc2[nH]ncc2c1 measured=98
structuresmilesstring=FC(F)(F)Oc1ccccc1-c1ccc2[nH]ncc2c1 measured=97
structuresmilesstring=COCc1cc2[nH]ncc2cc1-c1ccccc1C(F)(F)F measured=97

* * *

# experimentalDetails: AUC in Wistar rat at 10 mg/kg, po
# Format: ADME, organism-based
# Design: dose 10 mg/kg, route oral
# experimentalSetup: plasma
parameter: AUC (µM·h)

structuresmilesstring=FC(F)(F)c1ccccc1-c1cc2cn[nH]c2cc1Cl parameter=AUC readingunit=µM·h measured=26.2
structuresmilesstring=COc1cc2[nH]ncc2cc1-c1ccccc1C(F)(F)F parameter=AUC readingunit=µM·h measured=8.2
structuresmilesstring=Cc1cc2[nH]ncc2cc1-c1ccccc1C(F)(F)F parameter=AUC readingunit=µM·h measured=9.31
structuresmilesstring=FC(F)(F)c1ccccc1-c1cc2cn[nH]c2cc1OCC1CC1 parameter=AUC readingunit=µM·h measured=0.384
